- Test system: PANC-1 complex spheroid growth, percent test/control
- assay.comment: Anticancer human tumor PANC-1 cell line growth inhibition [Asc]; active = viability on the fitted dose curve at most 10% of control; inactive = the rest;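 note: spheroids exposed to agents for 7 days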
- condition.context: second compound 0.316 µM; first compound 10 µM
In this exercise, the only acceptable responses are active, inactive

Worked examples follow.
Request: Tell me the assay call for C#Cc1c(F)ccc2cc(O)cc(-c3ncc4c(N5CC6CCC(C5)N6)nc(OCC56CCCN5CC(F)C6)nc4c3F)c12 (stereo not drawn) + Cc1c(S(C)(=O)=O)c(-c2cc(F)cc(N3CCN(c4ccc(NS(=O)(=O)c5ccc(NC(CCN6CCC(C(=O)OCCCP(=O)(O)O)CC6)CSc6ccccc6)c(S(=O)(=O)C(F)(F)F)c5)cc4)CC3)c2)c(-c2ccc(Cl)cc2)n1C(C)C please.
Result: inactive

Request: Moving on to the next molecule: O=C(c1cc(Cc2n[nH]c(=O)c3ccccc23)ccc1F)N1CCN(C(=O)C2CC2)CC1 + CNC(C)C(=O)NC1CN(S(=O)(=O)c2cccc(S(=O)(=O)N3CCC4CCC(C(=O)NC(c5ccccc5)c5ccccc5)N4C(=O)C(NC(=O)C(C)NC)C3)c2)CCC2CCC(C(=O)NC(c3ccccc3)c3ccccc3)N2C1=O
Result: inactive

Would you kindly look at the next entry?
Request: Tell me the assay call for C=C(F)C(=O)N1CCN(c2nc(OCC3CCCN3C)nc3c2CCN(c2cccc4cccc(Cl)c24)C3)CC1CC#N (stereo not drawn) + CNC(C)C(=O)NC1CN(S(=O)(=O)c2cccc(S(=O)(=O)N3CCC4CCC(C(=O)NC(c5ccccc5)c5ccccc5)N4C(=O)C(NC(=O)C(C)NC)C3)c2)CCC2CCC(C(=O)NC(c3ccccc3)c3ccccc3)N2C1=O please.
Result: active

###

- Tested on: PANC-1 complex spheroid growth, percent test/control
- assay.comment: Anticancer human tumor PANC-1 cell line growth inhibition [Asc];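 note: spheroids exposed to agents for 7 days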
- condition.context: curve of first compound; second compound 3.16 µM
As shown below, each of these compounds has a reported IC50 value.

Request: Give the reported IC50 for O=C(c1ccc(F)c(F)c1Nc1ccc(I)cc1F)N1CC(O)([C@@H]2CCCCN2)C1 + Cc1c(S(C)(=O)=O)c(-c2cc(F)cc(N3CCN(c4ccc(NS(=O)(=O)c5ccc(NC(CCN6CCC(C(=O)OCCCP(=O)(O)O)CC6)CSc6ccccc6)c(S(=O)(=O)C(F)(F)F)c5)cc4)CC3)c2)c(-c2ccc(Cl)cc2)n1C(C)C (system: PANC-1 complex spheroid growth, percent test/control).
Result: > 1000 nM

Request: Moving on to the next compound: NC1CCC(NC2CC2c2ccccc2)CC1 (stereo not drawn) + Cc1c(S(C)(=O)=O)c(-c2cc(F)cc(N3CCN(c4ccc(NS(=O)(=O)c5ccc(NC(CCN6CCC(C(=O)OCCCP(=O)(O)O)CC6)CSc6ccccc6)c(S(=O)(=O)C(F)(F)F)c5)cc4)CC3)c2)c(-c2ccc(Cl)cc2)n1C(C)C
Result: > 100 nM

The record that follows has no IC50 shown yet.
Request: Give the reported IC50 for CNC(C)C(=O)NC1CN(S(=O)(=O)c2cccc(S(=O)(=O)N3CCC4CCC(C(=O)NC(c5ccccc5)c5ccccc5)N4C(=O)C(NC(=O)C(C)NC)C3)c2)CCC2CCC(C(=O)NC(c3ccccc3)c3ccccc3)N2C1=O (stereo not drawn) + Cc1c(S(C)(=O)=O)c(-c2cc(F)cc(N3CCN(c4ccc(NS(=O)(=O)c5ccc(NC(CCN6CCC(C(=O)OCCCP(=O)(O)O)CC6)CSc6ccccc6)c(S(=O)(=O)C(F)(F)F)c5)cc4)CC3)c2)c(-c2ccc(Cl)cc2)n1C(C)C (system: PANC-1 complex spheroid growth, percent test/control).
Result: > 1000 nM
